Target: T1, Recombinant Human DLL4 (R&D Systems Cat#1506-D4/CF) (human, UniProt Q9NR61 27-524)
T1 construct: also called delta-like protein 4; rHuman DLL4
Assay: ELISA, DLL4 coated on plate, Fab at 100 nM, absorbance at 450 nm
experimental.readout: ELISA Signal-blank (100 nM Fab)
Form field (numeric): enter value without unit.

[in] I have this binder here, Fab VH5-51_IGHD5-18*01>3_IGHJ4*01 G100K/G104T G24T/S28R/G35V (H:KT TRV) & V3-4_IGLJ1*01 S96V (Fab, V domains shown, Tested as Fab expressed in E. coli) VH: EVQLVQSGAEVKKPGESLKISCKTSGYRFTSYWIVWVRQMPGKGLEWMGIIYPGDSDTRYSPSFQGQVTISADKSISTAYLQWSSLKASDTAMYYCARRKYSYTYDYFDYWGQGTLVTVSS VL: QTVVTQEPSFSVSPGGTVTLTCGLSSGSVSTSYYPSWYQQTPGQAPRTLIYSTNTRSSGVPDRFSGSILGNKAALTITGAQADDESDYYCVLYMGVGISYVFGTGTKVTVL , and I need its recorded ELISA Signal-blank (100 nM Fab).
[out] 0.452

[in] How about this binder: Fab VH5-51_IGHD5-18*01>3_IGHJ4*01 G100K/G104T G24T/S28R/G35V (H:KT TRV) & V3-4_IGLJ1*01 S96R (Fab, V domains shown, Tested as Fab expressed in E. coli) VH: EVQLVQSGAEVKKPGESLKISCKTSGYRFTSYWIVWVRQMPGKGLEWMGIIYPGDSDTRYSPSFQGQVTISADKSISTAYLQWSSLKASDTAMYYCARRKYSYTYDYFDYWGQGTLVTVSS VL: QTVVTQEPSFSVSPGGTVTLTCGLSSGSVSTSYYPSWYQQTPGQAPRTLIYSTNTRSSGVPDRFSGSILGNKAALTITGAQADDESDYYCVLYMGRGISYVFGTGTKVTVL
[out] 0.499

[in] How about this binder: Fab VH5-51_IGHD5-18*01>3_IGHJ4*01 G100K/G104T G24T/S28R/G35V (H:KT TRV) & V3-4_IGLJ1*01 S96M (Fab, V domains shown, Tested as Fab expressed in E. coli) VH: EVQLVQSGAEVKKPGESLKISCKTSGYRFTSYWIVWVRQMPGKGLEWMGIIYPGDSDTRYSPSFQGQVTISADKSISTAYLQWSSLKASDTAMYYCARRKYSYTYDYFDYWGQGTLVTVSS VL: QTVVTQEPSFSVSPGGTVTLTCGLSSGSVSTSYYPSWYQQTPGQAPRTLIYSTNTRSSGVPDRFSGSILGNKAALTITGAQADDESDYYCVLYMGMGISYVFGTGTKVTVL
[out] 0.358

[in] How about this binder: Fab VH5-51_IGHD5-18*01>3_IGHJ4*01 G100K/G104T G24T/S28R/G35V (H:KT TRV) & V3-4_IGLJ1*01 S96E (Fab, V domains shown, Tested as Fab expressed in E. coli) VH: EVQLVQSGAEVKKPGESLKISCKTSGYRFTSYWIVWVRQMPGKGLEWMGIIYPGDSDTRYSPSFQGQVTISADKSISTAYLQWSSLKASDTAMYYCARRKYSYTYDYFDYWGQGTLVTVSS VL: QTVVTQEPSFSVSPGGTVTLTCGLSSGSVSTSYYPSWYQQTPGQAPRTLIYSTNTRSSGVPDRFSGSILGNKAALTITGAQADDESDYYCVLYMGEGISYVFGTGTKVTVL
[out] 0.439

[in] How about this binder: Fab VH5-51_IGHD5-18*01>3_IGHJ4*01 G100K/G104T G24T/S28R/G35V (H:KT TRV) & V3-4_IGLJ1*01 S96L (Fab, V domains shown, Tested as Fab expressed in E. coli) VH: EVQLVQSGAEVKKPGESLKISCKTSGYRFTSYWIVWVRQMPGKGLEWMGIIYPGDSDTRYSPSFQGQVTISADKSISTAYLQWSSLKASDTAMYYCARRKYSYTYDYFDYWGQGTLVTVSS VL: QTVVTQEPSFSVSPGGTVTLTCGLSSGSVSTSYYPSWYQQTPGQAPRTLIYSTNTRSSGVPDRFSGSILGNKAALTITGAQADDESDYYCVLYMGLGISYVFGTGTKVTVL
[out] 0.355

[in] How about this binder: Fab VH5-51_IGHD5-18*01>3_IGHJ4*01 G100K/G104T G24T/S28R/G35V (H:KT TRV) & V3-4_IGLJ1*01 S96P (Fab, V domains shown, Tested as Fab expressed in E. coli) VH: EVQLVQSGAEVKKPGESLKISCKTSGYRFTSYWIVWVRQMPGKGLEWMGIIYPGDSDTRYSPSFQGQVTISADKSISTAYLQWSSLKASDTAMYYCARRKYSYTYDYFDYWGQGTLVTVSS VL: QTVVTQEPSFSVSPGGTVTLTCGLSSGSVSTSYYPSWYQQTPGQAPRTLIYSTNTRSSGVPDRFSGSILGNKAALTITGAQADDESDYYCVLYMGPGISYVFGTGTKVTVL
[out] 0.813

The measured values listed here are drawn from patent US20120316071A1.
